# procedure_details: Stability of the seven components in rat plasma QC samples
# Assay type: physicochemical
# condition_details: medium QC level, n = 6
reported_property: −80°C for 30 days, RE (%)
# output: bare number, implied unit %

Prompt: Could you please provide reported −80°C for 30 days, RE for CC1(C)[C@@H](O[C@H]2O[C@H](C(=O)O)[C@@H](O)[C@H](O)[C@H]2O[C@@H]2O[C@H](C(=O)O)[C@@H](O)[C@H](O)[C@H]2O)CC[C@]2(C)[C@H]3C(=O)C=C4[C@@H]5C[C@@](C)(C(=O)O)CC[C@]5(C)CC[C@@]4(C)[C@]3(C)CC[C@@H]12 [Glycyrrhizic acid, glycyrrhizic acid] ? Thanks!
Response: 1.7

Prompt: Could you please provide reported −80°C for 30 days, RE for O=C(O)/C=C/c1ccccc1 [Cinnamic acid, cinnamic acid] ? Thanks!
Response: 3.6

Prompt: Could you please provide reported −80°C for 30 days, RE for O=C(/C=C/c1ccc(O[C@@H]2O[C@H](CO)[C@@H](O)[C@H](O)[C@H]2O)cc1)c1ccc(O)cc1O [Isoliquiritin, isoliquiritin] ? Thanks!
Response: −2.1

Prompt: Could you please provide reported −80°C for 30 days, RE for C=C1CCC[C@]2(C)C[C@]3(O)OC(=O)C(C)=C3C[C@@H]12 [Atractylenolide III, atractylenolide III] ? Thanks!
Response: −3.5

Prompt: Could you please provide reported −80°C for 30 days, RE for C=C(CC[C@@H](C(=O)O)[C@H]1[C@H](O)C[C@@]2(C)C3=CC[C@H]4C(C)(C)[C@@H](O)CC[C@]4(C)C3=CC[C@]12C)C(C)C [Dehydrotumulosic acid, dehydrotumulosic acid] ? Thanks!
Response: 10.2

Prompt: Could you please provide reported −80°C for 30 days, RE for O=C1C[C@@H](c2ccc(O[C@@H]3O[C@H](CO)[C@@H](O)[C@H](O)[C@H]3O)cc2)Oc2cc(O)ccc21 [Liquiritin, liquiritin] ? Thanks!
Response: 3.1

Prompt: Could you please provide reported −80°C for 30 days, RE for CC1(C)[C@@H](O)CC[C@]2(C)[C@H]3C(=O)C=C4[C@@H]5C[C@@](C)(C(=O)O)CC[C@]5(C)CC[C@@]4(C)[C@]3(C)CC[C@@H]12 [Glycyrrhetinic acid, glycyrrhetinic acid] ? Thanks!
Response: −4.9

----------
# procedure_details: Pharmacokinetic study of LGZGD components in plasma of normal and NAFLD rats after oral administration (UPLC-MS/MS)
# Assay type: in vivo, Male Sprague–Dawley rats
# condition_details: male, Sprague-Dawley, rat, plasma, po, 23 g/kg, Model (NAFLD) group, male SD rats, oral LGZGD extract 23 g/kg, plasma, mean ± SD, n = 6
I'd appreciate it if you could supply AUC(0-t) values for the items below.
# output: bare number, implied unit ng·h/mL

Prompt: Could you please provide reported AUC(0-t) for O=C1C[C@@H](c2ccc(O[C@@H]3O[C@H](CO)[C@@H](O)[C@H](O)[C@H]3O)cc2)Oc2cc(O)ccc21 [Liquiritin, liquiritin] ? Thanks!
Response: 52800

Prompt: Could you please provide reported AUC(0-t) for C=C1CCC[C@]2(C)C[C@]3(O)OC(=O)C(C)=C3C[C@@H]12 [Atractylenolide III, atractylenolide III] ? Thanks!
Response: 117

Prompt: Could you please provide reported AUC(0-t) for O=C(/C=C/c1ccc(O[C@@H]2O[C@H](CO)[C@@H](O)[C@H](O)[C@H]2O)cc1)c1ccc(O)cc1O [Isoliquiritin, isoliquiritin] ? Thanks!
Response: 51.9

Prompt: Could you please provide reported AUC(0-t) for O=C(O)/C=C/c1ccccc1 [Cinnamic acid, cinnamic acid] ? Thanks!
Response: 4330

Prompt: Could you please provide reported AUC(0-t) for CC1(C)[C@@H](O[C@H]2O[C@H](C(=O)O)[C@@H](O)[C@H](O)[C@H]2O[C@@H]2O[C@H](C(=O)O)[C@@H](O)[C@H](O)[C@H]2O)CC[C@]2(C)[C@H]3C(=O)C=C4[C@@H]5C[C@@](C)(C(=O)O)CC[C@]5(C)CC[C@@]4(C)[C@]3(C)CC[C@@H]12 [Glycyrrhizic acid, glycyrrhizic acid] ? Thanks!
Response: 40700

Prompt: Could you please provide reported AUC(0-t) for C=C(CC[C@@H](C(=O)O)[C@H]1[C@H](O)C[C@@]2(C)C3=CC[C@H]4C(C)(C)[C@@H](O)CC[C@]4(C)C3=CC[C@]12C)C(C)C [Dehydrotumulosic acid, dehydrotumulosic acid] ? Thanks!
Response: 43.4

Prompt: Could you please provide reported AUC(0-t) for CC1(C)[C@@H](O)CC[C@]2(C)[C@H]3C(=O)C=C4[C@@H]5C[C@@](C)(C(=O)O)CC[C@]5(C)CC[C@@]4(C)[C@]3(C)CC[C@@H]12 [Glycyrrhetinic acid, glycyrrhetinic acid] ? Thanks!
Response: 25600

----------
# procedure_details: Pharmacokinetic study of LGZGD components in plasma of normal and NAFLD rats after oral administration (UPLC-MS/MS)
# Format: in vivo, Male Sprague–Dawley rats
# condition_details: male, Sprague-Dawley, rat, plasma, po, 23 g/kg, Model (NAFLD) group, male SD rats, oral LGZGD extract 23 g/kg, plasma, mean ± SD, n = 6
reported_property: Tmax (h)
# output: bare number, implied unit h

Prompt: Could you please provide reported Tmax for O=C(O)/C=C/c1ccccc1 ? Thanks!
Response: 0.6

Prompt: Could you please provide reported Tmax for CC1(C)[C@@H](O[C@H]2O[C@H](C(=O)O)[C@@H](O)[C@H](O)[C@H]2O[C@@H]2O[C@H](C(=O)O)[C@@H](O)[C@H](O)[C@H]2O)CC[C@]2(C)[C@H]3C(=O)C=C4[C@@H]5C[C@@](C)(C(=O)O)CC[C@]5(C)CC[C@@]4(C)[C@]3(C)CC[C@@H]12 ? Thanks!
Response: 8.1

Prompt: Could you please provide reported Tmax for C=C(CC[C@@H](C(=O)O)[C@H]1[C@H](O)C[C@@]2(C)C3=CC[C@H]4C(C)(C)[C@@H](O)CC[C@]4(C)C3=CC[C@]12C)C(C)C [Dehydrotumulosic acid, dehydrotumulosic acid] ? Thanks!
Response: 1.8

----------
I'd appreciate it if you could supply Tmax values for the items below.
# procedure_details: Pharmacokinetic study of LGZGD components in plasma of normal and NAFLD rats after oral administration (UPLC-MS/MS)
# Assay type: in vivo, Male Sprague–Dawley rats
# condition_details: male, Sprague-Dawley, rat, plasma, po, 23 g/kg, Normal group, male SD rats, oral LGZGD extract 23 g/kg, plasma, mean ± SD, n = 6
# output: bare number, implied unit h

Prompt: Could you please provide reported Tmax for C=C(CC[C@@H](C(=O)O)[C@H]1[C@H](O)C[C@@]2(C)C3=CC[C@H]4C(C)(C)[C@@H](O)CC[C@]4(C)C3=CC[C@]12C)C(C)C [Dehydrotumulosic acid, dehydrotumulosic acid] ? Thanks!
Response: 4

Prompt: Could you please provide reported Tmax for O=C1C[C@@H](c2ccc(O[C@@H]3O[C@H](CO)[C@@H](O)[C@H](O)[C@H]3O)cc2)Oc2cc(O)ccc21 ? Thanks!
Response: 4.8

Prompt: Could you please provide reported Tmax for C=C1CCC[C@]2(C)C[C@]3(O)OC(=O)C(C)=C3C[C@@H]12 [Atractylenolide III, atractylenolide III] ? Thanks!
Response: 0.7

----------
I'd appreciate it if you could supply C max value decreased values for the items below.
# procedure_details: Pharmacokinetic study of LGZGD components in plasma of normal and NAFLD rats after oral administration (UPLC-MS/MS)
# Format: in vivo, Male Sprague–Dawley rats
# condition_details: NAFLD rats compared with normal rats, oral LGZGD

Prompt: Could you please provide reported C max value decreased for CC1(C)[C@@H](O[C@H]2O[C@H](C(=O)O)[C@@H](O)[C@H](O)[C@H]2O[C@@H]2O[C@H](C(=O)O)[C@@H](O)[C@H](O)[C@H]2O)CC[C@]2(C)[C@H]3C(=O)C=C4[C@@H]5C[C@@](C)(C(=O)O)CC[C@]5(C)CC[C@@]4(C)[C@]3(C)CC[C@@H]12 [Glycyrrhizic acid, glycyrrhizic acid] ? Thanks!
Response: 77.4%

Prompt: Could you please provide reported C max value decreased for C=C(CC[C@@H](C(=O)O)[C@H]1[C@H](O)C[C@@]2(C)C3=CC[C@H]4C(C)(C)[C@@H](O)CC[C@]4(C)C3=CC[C@]12C)C(C)C [Dehydrotumulosic acid, dehydrotumulosic acid] ? Thanks!
Response: 62.4%

Prompt: Could you please provide reported C max value decreased for C=C1CCC[C@]2(C)C[C@]3(O)OC(=O)C(C)=C3C[C@@H]12 [Atractylenolide III, atractylenolide III] ? Thanks!
Response: 35.2%

Prompt: Could you please provide reported C max value decreased for O=C(O)/C=C/c1ccccc1 [Cinnamic acid, cinnamic acid] ? Thanks!
Response: 38.3%

Prompt: Could you please provide reported C max value decreased for O=C(/C=C/c1ccc(O[C@@H]2O[C@H](CO)[C@@H](O)[C@H](O)[C@H]2O)cc1)c1ccc(O)cc1O [Isoliquiritin, isoliquiritin] ? Thanks!
Response: 31.1%

Prompt: Could you please provide reported C max value decreased for O=C1C[C@@H](c2ccc(O[C@@H]3O[C@H](CO)[C@@H](O)[C@H](O)[C@H]3O)cc2)Oc2cc(O)ccc21 [Liquiritin, liquiritin] ? Thanks!
Response: 63.8%

Prompt: Could you please provide reported C max value decreased for CC1(C)[C@@H](O)CC[C@]2(C)[C@H]3C(=O)C=C4[C@@H]5C[C@@](C)(C(=O)O)CC[C@]5(C)CC[C@@]4(C)[C@]3(C)CC[C@@H]12 [Glycyrrhetinic acid, glycyrrhetinic acid] ? Thanks!
Response: 65.0%
